method.notes: NCI Yeast Anticancer Drug Screen. Data for the bub3 strain (AID 167)
conditions.used: S. cerevisiae bub3 mutant strain, active compounds read high; at 50.0 µM unless noted
Method: Growth inhibition of yeast strains with defined genetic alterations is measured as a screen for potential anti-cancer activity. Selected strains with alterations in DNA damage repair or cell cycle control were exposed to compounds and growth inhibition was measured relative to vehicle treated controls. The strain used in this assay is bub3
The panel holds about 79,000 compounds, 15% with a hit somewhere; the sample as a whole holds those more often.
As shown below, each of these compounds has a reported growth inhibition value.
property.measured: growth inhibition (%)

compound	measured.value
COc1ccc2c(c1)[n+](=O)c(C(=O)C/C(=N\NC(=O)C[N+](C)(C)C)C(=O)Nc1cc(Cl)ccc1Cl)c(C)n2O	-23.1
Cc1ccc(S(=O)(=O)Nc2ccc([N+](=O)[O-])cc2-c2ccccc2)cc1	5.15
C1CCN(CCC2CCNCC2)CC1	7.65
CCOC(=O)c1sc(N)nc1N1CCCC1	7
C[N+](C)(C)CC(O)C[N+](C)(C)C	-3.5
COC(=O)C1(C(C)C(=O)c2ccccc2)NC(=S)NC(=O)C1C#N (stereo not given)	-14.4
COc1ccc(O)c2c1C(=O)CCCC2=O	4.05
Nc1ncnc2c1c(-c1nnc(-c3ccccc3)c(-c3ccccc3)n1)cn2C1OC(CO)C(O)C1O (stereo not given)	-4.25
Cc1cc(=O)[nH]c(NN2C(Cl)C(=O)C2c2ccccc2O)n1 (stereo not given)	-9.3
Cc1ccc(C)c(CCCCS(=O)(=O)O)c1	1.2
CC(C)C(=O)NCC[C@@H](CNC(=O)OC(C)(C)C)NC(=O)OC(C)(C)C	28.7
Cc1ncc([N+](=O)[O-])n1CC(O)Cn1cnc([N+](=O)[O-])n1 (stereo not given)	-4.35
O=C(O)c1ccccc1S(=O)Cc1ccc(Br)cc1 (stereo not given)	-0.3
CC(=O)OCC(OC(C)=O)C(OC(C)=O)C(/C=N/N(C(C)=O)S(=O)(=O)c1ccc(/C=C2\NC(=O)NC2=O)cc1)OC(C)=O (stereo not given)	-18.9
N#Cc1ccccc1NC(=O)C(=O)c1c(O)c2ccccc2oc1=O	-12.2
CC1C2=C(CC(C)(C)CC2=O)NC2=C1C(=O)CC(C)(C)C2	-7.4
Cc1cccc(C(=N)c2ccccc2Cc2cccc3ccccc23)c1C	68.5
COc1ccc(CC(C)NN)cc1 (stereo not given)	99.2
c1ccc(CNc2nn[nH]n2)cc1	4.2
CCOc1cc(C=O)c2c(ccc3ccc(OC)c(OC)c32)c1OC	82.4

---

method.notes: NCI Yeast Anticancer Drug Screen. Data for the cln2 rad14 strain (AID 165);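 also: 0% = growth equal to vehicle treated cultures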
conditions.used: S. cerevisiae cln2 rad14 strain, active compounds read high; at 50.0 µM unless noted
This is part of a sample that, as a whole, favours compounds with a hit. Of some 79,000 tested, about 15% had one in any assay.
Collected growth inhibition values appear next to each entry.
property.measured: growth inhibition (%)

molecule	property.measured	measured.value
CC1=NN(c2ccccc2)C(=O)C1O (centres undefined)	growth inhibition	-25.4
OC(c1ccccc1)c1ccc(C(O)c2ccccc2)cc1 (centres undefined)	growth inhibition	33.3
Cc1cccc(/C=N/NC(=S)NC(C)(C)C)n1	growth inhibition	0.1
O=C(C[n+]1ccccc1)c1ccc(O)c(I)c1	growth inhibition	21.7

---

method.notes: NCI Yeast Anticancer Drug Screen. Data for the cln2 rad14 strain (AID 165);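 also: 0% = growth equal to vehicle treated cultures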
conditions.used: S. cerevisiae cln2 rad14 strain, active compounds read high; at 50.0 µM unless noted
Compounds without any hit were thinned out: in the full panel of roughly 79,000, 15% have a hit.
property.measured: growth inhibition (%)

compound	unit.info	measured.value
CCCCN(CCCC)CC(C(=O)Nc1ccc([N+](=O)[O-])cc1[N+](=O)[O-])/C(C)=N\NC(=O)c1ccncc1 (stereo not given)	%	-65.1
CCOc1ccc(/C=C/C(=O)c2sc(NNC(C)=O)nc2C)cc1	%	12.7
COC(=O)CCn1cnc2c(SC)ncnc21	%	21.5
O=C(O)c1cccc2c(=O)c3ccccc3oc12	%	8.25
CCCCOc1c(Cl)c(Cl)cc(Cl)c1Cl	%	2.2
Cc1cccc2oc3c(c(=O)c12)CC(O)C(C)(C)O3 (stereo not given)	%	-7.85
CC(C)(C)NC(=O)C(Br)c1ccccc1 (stereo not given)	%	-2.25
C=C1CC(COc2ccc3c(C)c(C)c(=O)oc3c2C)(c2ccccc2)OC1=O (stereo not given)	%	4.85
CCCCCC[N+]1([O-])CC[N+]([O-])(CCCCCC)CC1 (stereo not given)	%	-43.4
Cn1c2ccc(Cl)cc2c2ccc3c(c21)C(=O)C=CC3=O	%	14.2

---

method.notes: NCI Yeast Anticancer Drug Screen. Data for the mec2-1 strain (AID 157)
conditions.used: S. cerevisiae mec2-1 strain, active compounds read high; at 50.0 µM unless noted
The panel holds about 79,000 compounds, 15% with a hit somewhere; the sample as a whole holds those more often.

compound	growth inhibition [%]
O=C1NCCN1/N=C/c1ccc([N+](=O)[O-])o1	9.35
CCOC(=O)c1c(C)[nH]c(C(=O)CCN(C)C)c1C	0.2
COc1cc([C@@H]2c3cc4c(cc3[C@H](OC3OC5COC(c6ccco6)OC5C(O)C3O)C3COC(=O)[C@@H]32)OCO4)cc(OC)c1OC (stereo partly drawn)	18.8
Cc1ccc(S(=O)(=O)Nc2ccccc2-c2nc3ccc(C)cc3c(=O)o2)cc1	-24.7
CC1(C)CNC[C@]2(C)OCCCO[C@@]3(C)CNCC(C)(C)NC(=O)[C@](C)(CNCC(C)(C)NC3=O)OCCCO[C@](C)(CNCC(C)(C)NC2=O)C(=O)N1	-22.2
CCOc1ccccc1N=C(NC(=O)CC)SC	26.8
CCOc1ccc([N+](=O)[O-])cc1[N+](=O)[O-]	2.1
COc1cccc(C2c3cc4c(cc3OC(C)(O)C2C)OCO4)c1O (stereo not drawn)	-3.75
O=CNC1c2ccccc2CCc2ccccc21	-12.9
O=C(C1=CCCCC1)c1ccc(-c2ccccc2)cc1	11.2
CC1OC(Cl)CC(NC(=O)C(F)(F)F)C1OC(=O)C(F)(F)F (stereo not drawn)	-1.7
O=C(/C=C/c1ccc(OCc2ccccc2)cc1)c1cccc([N+](=O)[O-])c1	6.35
O=C1CCCN(c2ccccc2)N1	24.6

---

method.notes: NCI Yeast Anticancer Drug Screen. Data for the rad50 strain (AID 155);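 also: 0% = growth of vehicle-only cultures of the same strain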
conditions.used: S. cerevisiae rad50 strain growth inhibition, active compounds read high; at 50.0 µM unless noted
About 79,000 compounds went through this panel and 15% of them were active in at least one assay; those are over-represented in the sample as a whole. Calls of active or inactive are those of the source. No stated cut-off is given here; in the data, active means growth inhibition above about 70%; inactive means the rest.
property.measured: growth inhibition

molecule	measured.value
Cc1[nH]c2c(C)ccc(C)c2c(=O)c1Br	-1.65% (inactive)
Fc1ccc2c(c1)SC1Oc3ccccc3-c3c1c-2nn3-c1ccccc1 (stereo not drawn)	-5.45% (inactive)
Nc1nc(-c2ccc(Cl)cc2)cc(-c2cc(-c3ccc(Cl)cc3)nc(N)n2)n1	6.7% (inactive)

---

method.notes: NCI Yeast Anticancer Drug Screen. Data for the mlh1 rad18 strain (AID 175)
conditions.used: S. cerevisiae mlh1 rad18 strain growth inhibition, active compounds read high; at 50.0 µM unless noted
The panel holds about 79,000 compounds, 15% with a hit somewhere; the sample as a whole holds those more often.
Listing: growth inhibition of selected compounds
property.measured: growth inhibition (%)

compound	property.measured	measured.value
CCOc1ccccc1N=Nc1c(-c2ccccc2)nn(C(=O)CC(=O)Nc2cccc(Cl)c2)c1-c1ccccc1	growth inhibition	22.2
O=C(CSS(=O)(=O)O)Nc1ccccc1	growth inhibition	-8.05
C=Nc1ccc(Nc2ccccc2)cc1	growth inhibition	3.3
CC1(C)Oc2nc[nH]c(=O)c2C1c1ccccc1 (stereo not given)	growth inhibition	5.35
CC(C)COC(c1ccc2c(c1)OCO2)C(C)Br (stereo not given)	growth inhibition	58.5
COc1cc2c(cc1OC)C(=O)/C(=C/c1cc(OC)c(OC)c(OC)c1)C2	growth inhibition	-69
Cn1c(Nc2ccccc2)c(C=Nc2ccccc2)c(=O)n(C)c1=O	growth inhibition	-0.9
OC1(c2nccc3ccccc23)CCN(CCc2ccccc2)CC1	growth inhibition	34.8
Fc1ccc(/C=C2/c3cc(Cl)ccc3-c3c(Cl)cc(Cl)cc32)cc1	growth inhibition	5.5
CCOC(=O)C(=O)Nc1c(C)cccc1C(C)(C)C	growth inhibition	-7.05

---

method.notes: NCI Yeast Anticancer Drug Screen. Data for the sgs1 mgt1 strain (AID 161);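 also: 0% = growth of cultures given vehicle only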
conditions.used: S. cerevisiae sgs1 mgt1 strain, active compounds read high; at 50.0 µM unless noted
The panel holds about 79,000 compounds, 15% with a hit somewhere; the sample as a whole holds those more often.

compound	growth inhibition, %
C=CCc1cc2c(C)cc(=O)oc2c(C)c1OC(C)=O	-1.1
Oc1cc2c(cc1C(Nc1ncccn1)c1ccc3c(c1)OCO3)OCO2 (configuration not stated)	12.8
CN(C)c1ccc(S(=O)(=O)OC2C(C3COC(C)(C)O3)OC3OC(C)(C)OC32)cc1 (configuration not stated)	-8.7
NC(=O)c1ccccc1OC(=O)Nc1ccc(F)c([N+](=O)[O-])c1	12.4
COc1ccc2oc(-c3cc4cc(OC)ccc4o3)cc2c1	-12.8
COC1OC2COC(C)(C)OC2C2OC(C)(C)OC12 (configuration not stated)	6.45
O=P1(O)c2ccccc2Nc2cc(C(F)(F)F)ccc21	-9.8
O=C(CSc1nc(-c2ccccc2)c(-c2ccccc2)[nH]1)N/N=C/c1ccc(O)cc1	-12.2
CC1=C2CC(C)(C)CC(=O)C2(C)CCC1=O (configuration not stated)	11.9
c1ccc(CCCNc2nnnc3ccccc23)cc1	-10.8
Nc1nc(CC2(O)CCCCC2)cc(-c2ccccc2)n1	21.1
CC(C)CCC(C)C1CCC2C3CCC4CC(=O)CC4(C)C3CCC12C (configuration not stated)	-20.1
COC(=O)C(=O)C1CCc2ccc3ccccc3c2C1=O (configuration not stated)	24.2
O=C1CN(CCc2ccccc2)CC(=O)N2C(c3ccccc3)CCCN12 (configuration not stated)	65.2
COc1cc(OC)c(I)cc1Cl	4.55
NC(=O)Nc1ccc(/C=C\c2ccnc3ccccc23)cc1	4.95
CC1Cc2c(n[nH]c2CC2CC(=O)NC(=O)C2)C(C)C1 (configuration not stated)	4
O=C(O)c1cc(Cl)c2ccccc2c1O	46.8
Cc1ccc(O)c(C=NCCN=Cc2cc(C)ccc2O)c1.[Zn]	0.05
CN1c2ccccc2C(=O)N2C(=O)CCC21C (configuration not stated)	-20.7
Cc1c(C(=O)CC(=O)C(=O)Nc2ccc(Cl)c(Cl)c2)[n+](=O)c2ccccc2n1[O-]	-16.1
O=C(O)CCC(=O)N1c2ccccc2CC1c1c[nH]c2ccccc12 (configuration not stated)	-6.55
CC1(C)CC[C@]2(C(=O)O)CCC3(C)C(=CCC4[C@@]5(C)CC[C@H](OC6OCC(O)C(O)C6OC6OC(CO)C(O)C(O)C6O)C(C)(C)C5CC[C@]43C)C2C1 (some centres not stated)	89.8
Nc1cc(S(=O)(=O)O)cc2cc(S(=O)(=O)O)cc(S(=O)(=O)O)c12	-29.6
COc1ccc(CCNCC(O)CSc2ccc(Cl)cc2)cc1OC (configuration not stated)	73
CCC(CC)C(=O)NCCNC(=O)C(CC)CC	14.2
O=C(O)c1cccc(OCCO)c1	-35.8
O=C1C=C(c2ccccc2)C(c2ccccc2)C(c2ccccc2)C1 (configuration not stated)	16.4
Cc1ccc(-c2c(C)c(-c3ccccc3)c(-c3ccccc3)c(C)c2-c2ccccc2)cc1C	25.8
Nc1ncnc(N)c1NC(=O)c1cccnc1	7.65
CCCCCCCCN(CCCCCCCC)CC(O)c1ccnc2c(Cl)cc(Cl)cc12 (configuration not stated)	43.2
O=S(=O)(Nc1nccs1)c1ccc(NCc2c3ccccc3nc3cc(Cl)ccc23)cc1	9.75
O=C(NCCCl)c1ccc(Cl)c(Cl)c1	4.95
N#CC(C#N)=C1SC(=Nc2ccccc2)C(=Nc2ccccc2)N1c1ccccc1	19.2
O=C(O)Cn1c(=O)[nH]c(=O)c2[nH]cnc21	-0.3
CCOC(=O)C(Cc1ccccc1)NC(=O)c1ccc(N=NN(C)C)cc1 (configuration not stated)	-37.2
CCN(CC)Cc1c(/C=C\c2cc(OC)c(OC)c(OC)c2)ccc(OC)c1O	14.1
